Biological target: human GPR119 (Homo sapiens)
Sequence (Q8TDV5 1-335): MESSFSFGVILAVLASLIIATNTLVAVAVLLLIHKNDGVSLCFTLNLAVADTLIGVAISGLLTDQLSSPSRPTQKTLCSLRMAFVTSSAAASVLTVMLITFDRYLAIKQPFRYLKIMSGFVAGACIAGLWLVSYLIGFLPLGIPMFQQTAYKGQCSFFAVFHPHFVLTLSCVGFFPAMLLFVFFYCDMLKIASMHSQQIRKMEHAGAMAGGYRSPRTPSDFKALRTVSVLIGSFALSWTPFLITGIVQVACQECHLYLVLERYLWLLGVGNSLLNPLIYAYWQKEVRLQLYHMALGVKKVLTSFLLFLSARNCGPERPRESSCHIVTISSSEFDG
Experiment: Cyclic AMP assay in stable cell line
Details: CHO-K1 cells stably transfected with human GPR119; cAMP levels (FRET, cAMP femto kit); 1 h at 37° C; read-out: EC50 Range
pEC50: −log10 of the molar value.
Readings of pEC50 for the listed compounds

chemicalSmiles	pEC50
CC(C)c1noc(N2CCC(Nc3ccc(-n4ccc5cc(S(C)(=O)=O)ccc54)nc3)CC2)n1	> 7.30
CN(C)C(=O)c1ccc2c(ccn2-c2ccc(OC3CCN(C(=O)OC(C)(C)C)CC3)cn2)c1	> 7.30
CC(C)OC(=O)N1CCC(Oc2ccc(-n3ccc4cc(N5CCOC5=O)ccc43)nc2)CC1	6.00 to 6.60
CCc1cnc(N2CCC(Oc3ccc(-n4ccc5cc(CNC(=O)C(C)C)ccc54)nc3)CC2)nc1	> 7.30
CC(C)(C)OC(=O)N1CCC(Oc2ccc(-n3ccc4cc(S(C)(=O)=O)cc(F)c43)nc2)CC1	> 7.30
CC(C)c1noc(CN2CCC(Oc3ccc(-n4ccc5cc(S(C)(=O)=O)ccc54)nc3)CC2)n1	> 7.30
CCc1cnc(N2CCC(Oc3ccc(-n4ccc5cc(S(=O)(=O)CC)ccc54)nc3)CC2)nc1	> 7.30
CNC(=O)c1ccc2c(ccn2-c2ccc(OCC3CCN(C(=O)OC(C)(C)C)CC3)cn2)c1	6.60 to 7.30

----------
Target: UniProt:Q8TDV5
Test: Cyclic AMP assay in stable cell line
Conditions: CHO-K1 cells stably transfected with human GPR119; cAMP levels (FRET, cAMP femto kit); 1 h at 37° C; read-out: EC50 Range
Description: Cyclic AMP Assay in Stable Cell Line: Chinese Hamster Ovary (CHO-K1) cells were stably transfected with human GPR119 and were maintained in Ham's F-12 complete medium containing 10% heat inactivated FBS (Sigma, UK). […] Stable clones were analyzed for functional cAMP response to OEA (oleoylethanolamide). […] The concentration of compound required to stimulate a half-maximal response (EC50) was determined using the GraphPad Prism software. […]
pEC50: −log10 of the molar value.

molecule	pEC50
CCc1cnc(N2CCC(Oc3ccc(-n4ccc5cc(C(=O)NCC(F)(F)F)ccc54)nc3)CC2)nc1	6.00 to 6.60
Cc1noc(N2CCC(Oc3ccc(-n4ccc5cc(S(=O)(=O)C(C)C)ccc54)nc3)CC2)n1	6.60 to 7.30
CC(C)c1noc(-c2ccc3c(ccn3-c3ccc(OC4CCN(C(=O)OC(C)(C)C)CC4)cn3)c2)n1	6.00 to 6.60
CC(C)(C)OC(=O)N1CCC(Oc2ccc(-n3ccc4cc(C(=O)NCCO)ccc43)nc2)CC1	6.60 to 7.30
CC(C)(C)OC(=O)N1CC2COCC(C1)C2Oc1ccc(-n2ccc3cc(S(C)(=O)=O)ccc32)nc1 (stereo not shown) [Example-48]	6.60 to 7.30
CC(C)OC(=O)N1CCC(OCc2ccc(-n3ccc4cc(S(C)(=O)=O)ccc43)nc2)CC1	6.60 to 7.30
CCc1cnc(N2CCC(Oc3ccc(-n4ccc5cc(NC(=O)C(C)C)ccc54)nc3)CC2)nc1	> 7.30
CCc1cnc(N2CCC(Oc3ccc(-n4ccc5cc(NC(=O)OC(C)C)ccc54)nc3)CC2)nc1	> 7.30
CCc1cnc(N2CCC(Oc3ccc(-n4ccc5cc(-c6nc(C(C)C)no6)ccc54)nc3)CC2)nc1	6.00 to 6.60
Cc1noc(N2CCC(OCc3ccc(-n4ccc5cc(S(C)(=O)=O)ccc54)nc3)CC2)n1	6.00 to 6.60
CCc1cnc(N2CCC(Oc3ccc(-n4ccc5cc(S(C)(=O)=O)ccc54)nc3)CC2)nc1	> 7.30
CC(C)(C)OC(=O)N1CCC(Oc2ccc(-n3ccc4cc(S(C)(=O)=O)ccc43)nc2)CC1	> 7.30
CCS(=O)(=O)c1ccc2c(ccn2-c2ccc(OC3CCN(CC(C)(C)O)CC3)cn2)c1	6.60 to 7.30
CCOC(=O)N1CCC(Oc2ccc(-n3ccc4cc(-n5cnnn5)ccc43)nc2)CC1	> 7.30
Cc1noc(N2CCC(Oc3ccc(-n4ccc5cc(S(C)(=O)=O)ccc54)nc3)CC2)n1	6.60 to 7.30
CC(C)C(=O)Nc1ccc2c(ccn2-c2ccc(OC3CCN(C(=O)OC(C)(C)C)CC3)cn2)c1	> 7.30
CCc1cnc(N2CCC(Oc3ccc(-n4cc(C)c5cc(S(C)(=O)=O)ccc54)nc3)CC2)nc1	> 7.30
CCc1cnc(N2CCC(Oc3ccc(-n4ccc5cc(C(=O)NC)ccc54)nc3)CC2)nc1	> 7.30
CC(C)(C)OC(=O)N1CCC(Oc2ccc(-n3ccc4cc(CO)ccc43)nc2)CC1	6.00 to 6.60
CCc1cnc(N2CCC(Oc3ccc(-n4ccc5cc(S(C)(=O)=O)cc(F)c54)nc3)CC2)nc1	> 7.30
CCc1noc(N2CCC(Oc3ccc(-n4ccc5cc(NC(=O)OC(C)C)ccc54)nc3)CC2)n1	> 7.30
CCOC(=O)Nc1ccc2c(ccn2-c2ccc(OC3CCN(C(=O)OC(C)(C)C)CC3)cn2)c1	> 7.30
CCc1cnc(N2CCC(Oc3ccc(-n4ccc5cc(C(=O)N(C)C)ccc54)nc3)CC2)nc1	> 7.30
CCc1cnc(N2CCC(OCc3ccc(-n4ccc5cc(S(C)(=O)=O)ccc54)nc3)CC2)nc1	6.60 to 7.30
CCc1cnc(N2CCC(Oc3ccc(-n4ccc5cc(C#N)ccc54)nc3)CC2)nc1	6.00 to 6.60
CCc1cnc(N2CCC(Oc3ccc(-n4ccc5cc(-c6nc(C)no6)ccc54)nc3)CC2)nc1	6.60 to 7.30
CS(=O)(=O)c1ccc2c(ccn2-c2ccc(OC3CCN(Cc4ccc(C(F)(F)F)cc4)CC3)cn2)c1	6.60 to 7.30
CCc1cnc(N2CCC(COc3ccc(-n4ccc5cc(C(=O)NC)ccc54)nc3)CC2)nc1	6.60 to 7.30
CCc1cnc(N2CCC(Nc3ccc(-n4ccc5cc(C(=O)N(C)C)ccc54)nc3)CC2)nc1	> 7.30
CCc1cnc(N2CC3COCC(C2)C3Oc2ccc(-n3ccc4cc(S(C)(=O)=O)ccc43)nc2)nc1 (stereo not shown)	> 7.30
CCc1cnc(N2CCC(Nc3ccc(-n4ccc5cc(S(C)(=O)=O)ccc54)nc3)CC2)nc1	6.60 to 7.30
